Target sequence: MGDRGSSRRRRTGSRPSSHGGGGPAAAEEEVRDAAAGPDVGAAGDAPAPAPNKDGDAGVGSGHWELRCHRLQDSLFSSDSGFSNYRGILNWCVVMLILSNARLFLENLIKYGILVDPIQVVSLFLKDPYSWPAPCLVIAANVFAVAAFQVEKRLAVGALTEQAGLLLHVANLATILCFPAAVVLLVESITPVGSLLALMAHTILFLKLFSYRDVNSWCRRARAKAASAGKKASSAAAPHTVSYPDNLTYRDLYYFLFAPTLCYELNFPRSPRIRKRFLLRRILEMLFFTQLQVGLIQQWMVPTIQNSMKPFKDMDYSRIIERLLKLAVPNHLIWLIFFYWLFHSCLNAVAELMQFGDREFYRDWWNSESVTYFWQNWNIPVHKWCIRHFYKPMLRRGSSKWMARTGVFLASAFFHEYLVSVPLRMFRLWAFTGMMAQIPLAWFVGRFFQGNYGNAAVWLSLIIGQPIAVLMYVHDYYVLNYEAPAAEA
pIC50: −log10 of the molar value.
readoutLabel: pIC50

pIC50 recorded for this compound, Cc1nc(N)c2c(n1)OC(C)(C)C(c1ccc([C@H]3CC[C@H](CN4CCCC(O)C4=O)CC3)cc1)=N2 (stereo partly shown) , is 7.00 to 8.00

Each recorded value in this set is attributed to patent US20070027093A1.
